From: ChEMBL document CHEMBL6127087

Target or system: P2Y purinoceptor 6 (Homo sapiens, UniProt Q15077)
Sequence (Q15077 whole entry): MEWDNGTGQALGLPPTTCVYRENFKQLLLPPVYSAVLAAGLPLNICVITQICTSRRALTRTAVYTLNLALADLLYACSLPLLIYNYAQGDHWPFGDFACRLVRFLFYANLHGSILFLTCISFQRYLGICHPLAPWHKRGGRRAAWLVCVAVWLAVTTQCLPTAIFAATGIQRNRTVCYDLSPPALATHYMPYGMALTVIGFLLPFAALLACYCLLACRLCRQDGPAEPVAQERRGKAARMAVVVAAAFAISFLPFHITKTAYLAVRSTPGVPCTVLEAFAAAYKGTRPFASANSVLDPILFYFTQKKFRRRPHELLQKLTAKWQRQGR
Assay name: Antagonist activity at human P2Y6R expressed in CHO cells assessed as inhibition of UDP sodium salt-induced Ca2+ level by FLIPR calcium 6 assay
Exercise: state measured IC50 for each of the compounds provided.
Give bare numbers, in nM.

Examples with answers:
O=C(O)CCCC(=O)N1N=C(c2ccc[nH]2)CC1c1cnc2ccccc2c1 (stereo not given) = 200
Cc1ccc2cc(C3CC(c4ccco4)=NN3C(=O)CCC(=O)O)c(Cl)nc2c1 (stereo not given) = 26.5
Cc1ccc2cc(C3CC(c4ccc(C(C)(C)C)cc4)=NN3C(=O)CCC(=O)O)c(Cl)nc2c1 (stereo not given) = 69.4
Cc1ccc2nc(Cl)c(C3CC(c4ccco4)=NN3C(=O)CCC(=O)O)cc2c1 (stereo not given) = 52.8

Let us move to another entry and its IC50.
Return reported IC50; argument: Cc1ccc2cc(C3CC(c4c[nH]c5ccccc45)=NN3C(=O)CCC(=O)O)c(Cl)nc2c1 (stereo not given)
148

* * *

Assay name: Stability in simulated intestinal fluid assessed as half-life
Assay type: physicochemical
Quantity measured: half-life

Consider the compound shown here: O=C(O)CCC(=O)N1N=C(c2ccc[nH]2)CC1c1cnc2ccccc2c1 (stereo unspecified) What is its recorded half-life?
> 5 h

* * *

Answer each item with its documented CL/F.
Assay name: Clearance in male Sprague-Dawley rat at 20 mg/kg, po measured after 24 hrs by LC-MS/MS analysis
Type: ADME, organism-based
Condition description: in vivo
Please format your answer as a value with the unit trailing.

O=C(O)CCC(=O)N1N=C(c2ccc[nH]2)CC1c1cnc2ccccc2c1 (configuration not stated) = 28.3 mL/min/kg

What does the data say about its CL/F? Entry: Cc1ccc2cc(C3CC(c4ccc(-c5ccccc5)cc4)=NN3C(=O)CCC(=O)O)c(Cl)nc2c1 (configuration not stated)
20.1 mL/min/kg

* * *

Target or system: UniProtKB Q15077
Assay name: Antagonist activity at human P2Y6R expressed in CHO cells assessed as inhibition of UDP sodium salt-induced Ca2+ level by FLIPR calcium 6 assay
pIC50: −log10 of the molar value.
The label depends only on pIC50: T if it is at least 7, F if it is smaller.

Example cases with answers are listed next.
O=C(O)CCC(=O)N1N=C(c2ccc[nH]2)CC1c1cc2ccccc2nc1Cl (stereo not given) = F
Cc1ccc2cc(C3CC(c4cccnc4)=NN3C(=O)CCC(=O)O)c(Cl)nc2c1 (stereo not given) = F

Threshold query (pIC50 >= 7) on O=C(O)CCC(=O)N1N=C(c2ccccc2)CC1c1cc2ccc(F)cc2nc1Cl (stereo not given)
F

# repeat for Cc1ccc2cc(C3CC(c4cccc(C(F)(F)F)c4)=NN3C(=O)CCC(=O)O)c(Cl)nc2c1 (stereo not given)
F

What about O=C(O)CCC(=O)N1N=C(c2ccco2)CC1c1cc2ccccc2nc1Cl (stereo not given) ?
F

Would you kindly repeat that for Cc1cccc2cc(C3CC(c4ccccc4)=NN3C(=O)CCC(=O)O)c(Cl)nc12 (stereo not given) ?
T

Next up: O=C(O)CCC(=O)N1N=C(c2ccco2)CC1c1cnc2ccccc2c1 (stereo not given)
T

Please answer likewise for Cc1ccc2cc(C3CC(c4ccccc4F)=NN3C(=O)CCC(=O)O)c(Cl)nc2c1 (stereo not given)
F

Also Cc1ccc2cc(C3CC(c4ccco4)=NN3C(=O)CCCC(=O)O)c(Cl)nc2c1 (stereo not given) , if possible.
F

* * *

Assay name: Tmax in male Sprague-Dawley rat at 20 mg/kg, po measured after 24 hrs by LC-MS/MS analysis
Format: ADME, organism-based
Condition description: male, Sprague-Dawley, in vivo, read-out: Tmax (converted)
Quantity measured: Tmax (min)
One number for each entry, in min.

Suppose we examine the compound O=C(O)CCC(=O)N1N=C(c2ccc[nH]2)CC1c1cnc2ccccc2c1 (stereo unspecified) ; what Tmax value has been reported?
46

* * *

Target or system: P2Y purinoceptor 4 (Homo sapiens, UniProt P51582)
Sequence (P51582 whole entry): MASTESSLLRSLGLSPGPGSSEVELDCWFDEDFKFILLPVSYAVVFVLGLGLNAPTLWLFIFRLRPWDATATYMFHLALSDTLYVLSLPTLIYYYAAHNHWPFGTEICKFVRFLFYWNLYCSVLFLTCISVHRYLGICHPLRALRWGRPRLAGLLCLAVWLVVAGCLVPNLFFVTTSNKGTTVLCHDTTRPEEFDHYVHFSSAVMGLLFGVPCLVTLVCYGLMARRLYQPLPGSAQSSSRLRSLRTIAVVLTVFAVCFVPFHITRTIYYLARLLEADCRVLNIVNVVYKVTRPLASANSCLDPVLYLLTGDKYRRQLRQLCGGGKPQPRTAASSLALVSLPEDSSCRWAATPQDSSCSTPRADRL
Assay name: Antagonist activity at human P2Y4R stably expressed in HEK293 cells assessed as inhibition of UTP-induced IP3 accumulation preincubated with compound for 30 mins followed by UTP addition by ELISA
Quantity measured: pIC50
Numbers only, as −log10 of the molar value.

Requested read-out: pIC50. Entry: `O=C(C1CC1)N1CCc2cc(Br)c(S(=O)(=O)Nc3ccc(Cl)c(C(F)(F)F)c3)cc21`
4.90

* * *

Assay name: Metabolic stability in human liver microsomes assessed as intrinsic clearance preincubated for 10 mins followed by NADPH addition and measured upto 60 mins by LC-MS/MS analysis
Type: ADME, Microsome
Condition description: time < 70 min, read-out: CLH
Quantity measured: microsomal CLint (µL/min/mg)
One number for each entry, in µL/min/mg.

Return reported microsomal CLint; argument: O=C(O)CCC(=O)N1N=C(c2ccc[nH]2)CC1c1cnc2ccccc2c1 (stereo unspecified)
18.6

* * *

Assay name: Half-life in male Sprague-Dawley rat at 20 mg/kg, po measured after 24 hrs by LC-MS/MS analysis
Type: ADME, organism-based
Condition description: male, Sprague-Dawley, in vivo
Quantity measured: half-life
Include the unit after the number when you answer.

Dear colleague, I am looking for the recorded half-life of the following compound: O=C(O)CCC(=O)N1N=C(c2ccc[nH]2)CC1c1cnc2ccccc2c1 (stereo unspecified)
5.2 h

* * *

Assay name: Clearance in male Sprague-Dawley rat at 10 mg/kg, iv measured after 24 hrs by LC-MS/MS analysis
Type: ADME, organism-based
Condition description: in vivo
Quantity measured: clearance (mL/min/kg)
Answers are plain numbers, in mL/min/kg.

I'd like to know its clearance. The molecule in question is Cc1ccc2cc(C3CC(c4ccc(-c5ccccc5)cc4)=NN3C(=O)CCC(=O)O)c(Cl)nc2c1 (stereo unspecified)
13.5

* * *

Assay name: Cmax in male Sprague-Dawley rat at 20 mg/kg, po measured after 24 hrs by LC-MS/MS analysis
Assay type: ADME, organism-based
Condition description: male, Sprague-Dawley, in vivo, read-out: Cmax
Quantity measured: Cmax (ng/mL)
One number for each entry, in ng/mL.

Any idea what Cmax was measured for O=C(O)CCC(=O)N1N=C(c2ccc[nH]2)CC1c1cnc2ccccc2c1 (stereo unspecified) ?
2940

* * *

Assay name: AUC (0 to 24 hrs) in male Sprague-Dawley rat at 20 mg/kg, po measured after 24 hrs by LC-MS/MS analysis
Assay type: ADME, organism-based
Condition description: male, Sprague-Dawley, in vivo
Quantity measured: AUC(0-t) at 24 h (ng·h/mL)
One number for each entry, in ng·h/mL.

Which AUC(0-t) at 24 h value is on record for O=C(O)CCC(=O)N1N=C(c2ccc[nH]2)CC1c1cnc2ccccc2c1 (stereo unspecified) ?
2980

* * *

Assay name: Oral bioavailability in male Sprague-Dawley rat at 20 mg/kg measured after 24 hrs by LC-MS/MS analysis
Format: ADME, organism-based
Condition description: male, Sprague-Dawley, in vivo
Quantity measured: bioavailability (%)
Answers are plain numbers, in %.

Endpoint output: bioavailability of O=C(O)CCC(=O)N1N=C(c2ccc[nH]2)CC1c1cnc2ccccc2c1 (stereo unspecified) . Value?
43

* * *

I'd be grateful if you could share measured log10 of IC50 for these entries.
Target or system: P2Y purinoceptor 6 (Homo sapiens, UniProt Q15077)
Assay name: Antagonist activity at human P2Y6R expressed in CHO cells assessed as inhibition of UDP sodium salt-induced Ca2+ level by FLIPR calcium 6 assay
Please keep in mind that the values are log10 of IC50 expressed in µM.

Solved entries (count: 5):
Cc1cccc2cc(C3CC(c4ccco4)=NN3C(=O)CCC(=O)O)c(Cl)nc12 (stereo not given) = -1.46
Cc1ccc2cc(C3CC(c4ccccc4)=NN3C(=O)CCC(=O)O)c(Cl)nc2c1 (stereo not given) = -1.26
COc1cccc(C2=NN(C(=O)CCC(=O)O)C(c3cc4ccc(C)cc4nc3Cl)C2)c1 (stereo not given) = -1.11
Cc1ccc2nc(Cl)c(C3CC(c4ccccc4)=NN3C(=O)CCC(=O)O)cc2c1 (stereo not given) = -0.97
O=C(O)CCC(=O)N1N=C(c2ccc[nH]2)CC1c1cc2ccc(F)cc2nc1Cl (stereo not given) = -0.38

For each entry beneath this line, provide reported log10 of IC50.
1. COc1ccc(C2=NN(C(=O)CCC(=O)O)C(c3cc4ccc(C)cc4nc3Cl)C2)cc1 (stereo not given)
2. Cc1cccc2cc(C3CC(c4ccc[nH]4)=NN3C(=O)CCC(=O)O)c(Cl)nc12 (stereo not given)
3. O=C(O)CCC(=O)N1N=C(c2ccc[nH]2)CC1c1cnc2ccccc2c1 (stereo not given)

[-0.97, -1.27, -1.71]

Give me log10 of IC50 for each of these compounds, listed below.
1. Cc1ccc2nc(Cl)c(C3CC(c4ccc[nH]4)=NN3C(=O)CCC(=O)O)cc2c1 (stereo not given)
2. O=C(O)CCC(=O)N1N=C(c2ccco2)CC1c1cc2ccc(F)cc2nc1Cl (stereo not given)
3. Cc1ccc(C2=NN(C(=O)CCC(=O)O)C(c3cc4ccc(C)cc4nc3Cl)C2)cc1 (stereo not given)
4. Cc1ccc2cc(C3CC(c4cccs4)=NN3C(=O)CCC(=O)O)c(Cl)nc2c1 (stereo not given)

1: -1.18; 2: -0.68; 3: -1.07; 4: -0.49

For every item in the list below, what is its measured log10 of IC50?
1. O=C(O)CCC(=O)N1N=C(c2ccccc2)CC1c1cnc2ccccc2c1 (stereo not given)
2. Cc1ccc2cc(C3CC(c4ccc(-c5ccccc5)cc4)=NN3C(=O)CCC(=O)O)c(Cl)nc2c1 (stereo not given)
3. Cc1ccc2cc(C3CC(c4ccco4)=NN3C(=O)C=CC(=O)O)c(Cl)nc2c1 (stereo not given)
4. O=C(O)CCC(=O)N1N=C(c2ccccc2)CC1c1cc2ccccc2nc1Cl (stereo not given)
5. Cc1ccc2cc(C3CC(c4ccc[nH]4)=NN3C(=O)CCC(=O)O)c(Cl)nc2c1 (stereo not given)
6. O=C(O)/C=C\C(=O)N1N=C(c2ccc[nH]2)CC1c1cnc2ccccc2c1 (stereo not given)

1: -1.40; 2: -0.77; 3: -0.54; 4: -0.56; 5: -1.53; 6: -0.41
